# System: Yap1 mRNA
# Assay text: Dose-dependent inhibition of human Yap1 in A-431 cells (Example 8, 10,000 cells per well, RTS4814)
# Type: cell-based
# Assay conditions: 2000.00 nM; A-431 cells, 10,000 cells per well, free uptake, approximately 48 hours, RTS4814
# Procedure: Modified oligonucleotides described in the studies above were tested at various doses in A-431 cells. […] After approximately 48 hours, Yap1 mRNA levels were measured as previously described using the Human Yap1 primer-probe set RTS4814. Yap1 mRNA levels were normalized to total RNA content, as measured by RIBOGREEN®. […] IC50s were calculated using a linear regression on a log/linear plot of the data in excel.
Strand notation (5' to 3'): a small letter for the sugar, then the base; units joined by * are phosphorothioate-linked, units joined directly phosphodiester-linked; [ ] holds rarer units or linkages, { } end groups; capitals alone tell only the bases. k = constrained ethyl (cEt); [5mC] = 5-methylcytosine; d = 2'-deoxy (DNA)
Readout kind: Yap1 mRNA, % UTC
Lab note: write values as number then unit, every time.

Per the record, 1074608 (DNA kG*kT*kT*dA*d[5mC]*dA*dT*d[5mC]*dA*dT*d[5mC]*dT*d[5mC]*kT*kT*k[5mC]) [compound 1074608] has Yap1 mRNA, % UTC of 7 % UTC

Per the record, 1074577 (DNA kT*kA*kT*dT*dT*d[5mC]*dT*dG*dT*d[5mC]*dA*dT*dG*k[5mC]*kA*k[5mC]) [compound 1074577] has Yap1 mRNA, % UTC of 3 % UTC

Per the record, 1076143 (kG*kA*kT*dA*d[5mC]*dG*dA*dA*dA*dA*dA*dA*dG*k[5mC]*k[5mC]*kA; antisense) [compound 1076143] has Yap1 mRNA, % UTC of 9 % UTC

Per the record, 1074607 (DNA kA*kA*kG*dG*dT*dA*dT*dA*dA*dT*d[5mC]*dA*dT*kG*kA*kT) [compound 1074607] has Yap1 mRNA, % UTC of 5 % UTC

Per the record, 1075138 (kA*kA*kT*dA*dA*dT*dA*dG*dA*dT*dA*d[5mC]*dT*kG*k[5mC]*k[5mC]; antisense) [compound 1075138] has Yap1 mRNA, % UTC of 5 % UTC

Per the record, 1076449 (k[5mC]*k[5mC]*kT*dT*dA*dT*dA*dA*dT*dG*d[5mC]*dA*dA*kT*k[5mC]*k[5mC]; antisense) [compound 1076449] has Yap1 mRNA, % UTC of 2 % UTC

* * *

# Test system: Yap1 mRNA
# Assay text: Antisense inhibition of human Yap1 in SNU-449 cells by modified oligonucleotides, single dose (Example 5, RTS36584)
# Format: cell-based
# Assay conditions: Table 49; Yap1 mRNA level relative to untreated control; modified oligonucleotides targeting SEQ ID NO.: 1 and 2
Strand notation (5' to 3'): a small letter for the sugar, then the base; units joined by * are phosphorothioate-linked, units joined directly phosphodiester-linked; [ ] holds rarer units or linkages, { } end groups; capitals alone tell only the bases. e = 2'-O-(2-methoxyethyl) (MOE); k = constrained ethyl (cEt); [5mC] = 5-methylcytosine; d = 2'-deoxy (DNA)
Can you tell me YAP1 (% UT) for the items I'm about to list?

Per the record, 1198355 (kA*kA*kA*dG*dT*dG*dT*dA*dT*dG*dT*d[5mC]*kA*eG*kA*eA; antisense) [Compound 1198355] has YAP1 (% UT) of 6 % UT

Per the record, 1198543 (antisense kA*kT*kT*dG*dT*d[5mC]*dT*d[5mC]*dA*dT*dG*d[5mC]*k[5mC]*kT*kT*eA) [Compound 1198543] has YAP1 (% UT) of 15 % UT

Per the record, 1198359 (k[5mC]*kT*kT*dT*dA*dA*dA*dG*dT*dG*dT*dA*kT*eG*kT*e[5mC]; antisense) [Compound 1198359] has YAP1 (% UT) of 28 % UT

* * *

# Tested on: Yap1 mRNA
# Assay text: Antisense inhibition of human Yap1 in A-431 cells by cEt gapmers, single dose (Example 1, RTS4814)
# Type: cell-based
# Assay conditions: Table 2; A-431 cells, free uptake, 2,000 nM, approximately 48 hours, RTS4814; Yap1 mRNA relative to untreated control cells
Strand notation (5' to 3'): a small letter for the sugar, then the base; units joined by * are phosphorothioate-linked, units joined directly phosphodiester-linked; [ ] holds rarer units or linkages, { } end groups; capitals alone tell only the bases. k = constrained ethyl (cEt); [5mC] = 5-methylcytosine; d = 2'-deoxy (DNA)
Readout kind: YAP1 (% UTC)
Your answer should be a plain number; it is taken to be in % UTC.

Yap1 mRNA data for 715620 (antisense kA*kA*kA*dA*dA*dT*dA*dA*dG*dA*d[5mC]*dG*dG*kA*kT*kA) [Compound 715620] ; its YAP1 (% UTC): 111

Yap1 mRNA data for 715500 (antisense kA*kA*kG*d[5mC]*d[5mC]*dT*dT*dA*dG*dA*dG*dT*d[5mC]*kA*kA*kT) [Compound 715500] ; its YAP1 (% UTC): 30

Yap1 mRNA data for 715602 (antisense kA*k[5mC]*kA*dG*dA*dA*dT*dT*d[5mC]*d[5mC]*d[5mC]*dA*dA*kG*k[5mC]*kT) [Compound 715602] ; its YAP1 (% UTC): 110

Yap1 mRNA data for 715539 (kA*kG*kA*dT*d[5mC]*dT*d[5mC]*dA*d[5mC]*dT*dG*dA*d[5mC]*k[5mC]*kT*kA; antisense) [Compound 715539] ; its YAP1 (% UTC): 102

Yap1 mRNA data for 715461 (antisense kT*k[5mC]*kA*dT*d[5mC]*dT*d[5mC]*dG*dA*dG*dA*dG*dT*kG*kA*kT) [Compound 715461] ; its YAP1 (% UTC): 153

Yap1 mRNA data for 715476 (antisense kA*kA*kA*dG*d[5mC]*dT*dT*dT*d[5mC]*dT*dT*dT*dA*kT*k[5mC]*kT) [Compound 715476] ; its YAP1 (% UTC): 84

Yap1 mRNA data for 715443 (antisense kT*kT*k[5mC]*dA*d[5mC]*dT*dG*dG*dA*dG*d[5mC]*dA*d[5mC]*kT*k[5mC]*kT) [Compound 715443] ; its YAP1 (% UTC): 40

Yap1 mRNA data for 715590 (kT*kT*kG*dG*d[5mC]*dA*dG*dA*dG*dA*dT*dA*dA*kA*kA*k[5mC]; antisense) [Compound 715590] ; its YAP1 (% UTC): 84

Yap1 mRNA data for 715563 (kA*kG*k[5mC]*dA*d[5mC]*dA*d[5mC]*dA*dA*d[5mC]*dT*d[5mC]*dA*kG*kA*k[5mC]; antisense) [Compound 715563] ; its YAP1 (% UTC): 86

* * *

# Tested on: Yap1 mRNA
# Assay text: Dose-dependent inhibition of human Yap1 in A-431 cells (Example 7, 10,000 cells per well, RTS36584)
# Assay type: cell-based
# Assay conditions: 4000.00 nM, A-431 cells, 10,000 cells per well, free uptake, approximately 48 hours
Strand notation (5' to 3'): a small letter for the sugar, then the base; units joined by * are phosphorothioate-linked, units joined directly phosphodiester-linked; [ ] holds rarer units or linkages, { } end groups; capitals alone tell only the bases. k = constrained ethyl (cEt); [5mC] = 5-methylcytosine; d = 2'-deoxy (DNA)
// not met strictly below 7 % UTC in Yap1 mRNA, % UTC; met otherwise

Answer whether Yap1 mRNA, % UTC of 958735 (kA*kG*k[5mC]*dA*dA*dT*d[5mC]*dT*dT*dG*dT*dG*dG*kA*kT*k[5mC]; antisense) [compound 958735] is greater than or equal to 7 % UTC. met

Answer whether Yap1 mRNA, % UTC of 958819 (kT*kG*k[5mC]*dT*dT*d[5mC]*dA*dA*d[5mC]*dA*dT*dT*dG*kT*kT*k[5mC]; antisense) [compound 958819] is greater than or equal to 7 % UTC. met

Answer whether Yap1 mRNA, % UTC of 958590 (kA*kG*kG*dT*dA*dT*dA*dA*d[5mC]*dT*dG*dG*dG*k[5mC]*kA*kA) [compound 958590] is greater than or equal to 7 % UTC. not met

Answer whether Yap1 mRNA, % UTC of 716454 (antisense k[5mC]*kG*kA*dG*dA*dT*dT*dT*dA*dA*dA*dT*dA*kA*kG*kG) [compound 716454] is greater than or equal to 7 % UTC. not met

Answer whether Yap1 mRNA, % UTC of 958615 (kT*kG*kG*dT*d[5mC]*dT*dT*dG*dT*dT*d[5mC]*dT*dT*kA*kT*kG; antisense) [compound 958615] is greater than or equal to 7 % UTC. met
